- TEST_SYSTEM: SARS-CoV-2 prefusion-stabilized spike protein (SARS-CoV-2-PreS) (SARS-CoV-2, UniProt P0DTC2 14-1208)
- METHOD: Biacore, apparent affinity
OBSERVED_PROPERTY: Kd (nM)

INSERT INTO measurements (binder, experimental_value) VALUES
  ('1E4 VHH (VHH) VHH: QVLLVESGGGLVQAGGLLRLACSASGRTFTENVMGWFRQAPGKEREFVAAINWNTGSTYYSDSRKGRFTISKDNAKNTMFLQINNLKPEDTAVYYCGGTSSSYYYIGEFIPDYWGQGTQVTVSS', 0.25),
  ('13C8 VHH (VHH) VHH: QVQLVESGGGLVQAGGSLRLSCAASGRTVNKYMTGWFRQTPGKEREFVASIDWSSTTTHYANSVKGRFTISRDKVKNTVYLQMNGLKPEDTAVYYCAAHQDSSYGYTILPIDYDSWGQGTQVTVSS', 12);
